- measurement description: Fluorescence properties of the CypH dyes at pH 5.0 and pH 7.5 (Table 2)
- Assay type: physicochemical
- assay conditions: pH 7.5
property measured: FL Max (nm) pH 7.5
Write it as a number; the unit nm goes unstated.

Task item: // lookup FL Max (nm) pH 7.5 for CC(C)N(C)c1ccc(OC2=C(/C=C/C3=[N+](C(C)C)c4ccccc4C3(C)C)CCC/C2=C\C=C2\N(C(C)C)c3ccccc3C2(C)C)cc1.[I-] [CypH-11]
Reply: 785

Task item: Reported FL Max (nm) pH 7.5 for CCN(C)c1ccc(OC2=C(/C=C/C3=[N+](C)c4ccccc4C3(C)C)CCC/C2=C\C=C2\N(C)c3ccccc3C2(C)C)cc1 [CypH-5] : what is it?
Reply: 787

Task item: State the recorded FL Max (nm) pH 7.5 for this entry: CCCN1/C(=C/C=C2\CCCC(/C=C/C3=[N+](CCC)c4ccccc4C3(C)C)=C2Oc2ccc(N(C)CC)cc2)C(C)(C)c2ccccc21.[I-] [CypH-18]
Reply: 782

====

Below, each of the compounds is paired with its reported Solubility value.
- measurement description: Solubility of the CypH dyes (Table 1)
- Format: physicochemical
- assay conditions: in EtOH

- CCN(C)c1ccc(OC2=C(/C=C/C3=[N+](CC(C)C)c4ccccc4C3(C)C)CCC/C2=C\C=C2\N(CC(C)C)c3ccccc3C2(C)C)cc1.[I-] [CypH-20]: >1 mM in
- CC(C)CN1/C(=C/C=C2\CCCC(/C=C/C3=[N+](CC(C)C)c4ccccc4C3(C)C)=C2Oc2ccc(N(C)C)cc2)C(C)(C)c2ccccc21.[I-] [CypH-19]: >1 mM in

Below: the item to evaluate.
Task item: Any idea what Solubility was measured for CCN(C)c1ccc(OC2=C(/C=C/C3=[N+](C)c4ccccc4C3(C)C)CC/C2=C\C=C2\N(C)c3ccccc3C2(C)C)cc1.[Cl-] [CypH-8] ?
Reply: >1 mM in

====

Recorded Abs. Max (nm) in EtOH, one value per entry.
- measurement description: Optical properties of the CypH dyes: absorbance maximum and extinction coefficient in EtOH (Table 1)
- Type: physicochemical
- assay conditions: in EtOH
Answers without a unit are incomplete; give the number and then its unit.

* CC(C)CN1/C(=C/C=C2\CCCC(/C=C/C3=[N+](CC(C)C)c4ccccc4C3(C)C)=C2Oc2ccc(N(C)C)cc2)C(C)(C)c2ccccc21.[I-] | 774 nm
* CCN(CC)c1ccc(OC2=C(/C=C/C3=[N+](C)c4ccccc4C3(C)C)CCC/C2=C\C=C2\N(C)c3ccccc3C2(C)C)cc1.[Cl-] | 767 nm

Task item: Value lookup for Abs. Max (nm) in EtOH; key = CN(C)c1ccc(OC2=C(/C=C/C3=[N+](C)c4ccccc4C3(C)C)CCC/C2=C\C=C2\N(C)c3ccccc3C2(C)C)cc1.[Cl-] [CypH-1, reference compound]
Reply: 760 nm

Task item: Which Abs. Max (nm) in EtOH is listed for CCCN1/C(=C/C=C2\CCCC(/C=C/C3=[N+](CCC)c4ccccc4C3(C)C)=C2Oc2ccc(N(C)CC)cc2)C(C)(C)c2ccccc21.[I-] ?
Reply: 772 nm

Task item: Need Abs. Max (nm) in EtOH, item CN(C)c1ccc(OC2=C(/C=C/C3=[N+](C)c4ccccc4C3(C)C)CC/C2=C\C=C2\N(C)c3ccccc3C2(C)C)cc1.[Cl-]
Reply: 775 nm

Task item: Requested read-out: Abs. Max (nm) in EtOH. Entry: CC(C)N(C)c1ccc(OC2=C(/C=C/C3=[N+](C(C)C)c4ccccc4C3(C)C)CCC/C2=C\C=C2\N(C(C)C)c3ccccc3C2(C)C)cc1.[I-]
Reply: 771 nm

Task item: Which Abs. Max (nm) in EtOH reading was recorded for the compound CCCN1/C(=C/C=C2\CCCC(/C=C/C3=[N+](CCC)c4ccccc4C3(C)C)=C2Oc2ccc(N(C)C)cc2)C(C)(C)c2ccccc21.[I-] ?
Reply: 772 nm
